- ASSAY SUMMARY: Cell toxicity (CC50) in the HepG2 cell line, CellTiter-Glo
- Assay type: cell-based, human
- ASSAY CONTEXT: human; HepG2 cell line, 24 h, ATP luminescence; compound from screened library; read-out: HepG2 CC50 Mean
REPORTED METRIC: CC50 at 24 h (µM)
# value in µM; strip the unit string

Per the record, CC(C)[C@@H]1NC(=O)[C@H](C)OC(=O)[C@@H](C(C)C)NC(=O)[C@@H](C(C)C)OC(=O)[C@H](C(C)C)NC(=O)[C@H](C)OC(=O)[C@@H](C(C)C)NC(=O)[C@@H](C(C)C)OC(=O)[C@H](C(C)C)NC(=O)[C@H](C)OC(=O)[C@@H](C(C)C)NC(=O)[C@@H](C(C)C)OC1=O [Valinomycin] has CC50 at 24 h of 10.7

Per the record, CCCCCC[C@H]1C(=O)O[C@H](C)[C@H](NC(=O)c2cccc(NC=O)c2O)C(=O)O[C@@H](C)[C@@H]1OC(=O)CC(C)C [ANTIMYCIN A] has CC50 at 24 h of 58.4

Per the record, C[C@]12C(=O)C=CCC1=CC[C@@H]1[C@@H]2CC[C@@]2(O)C(=O)O[C@@]3(C)[C@H]4C[C@]5(C)[C@@H](CO[C@@]16O[C@]23[C@H]5C6=O)C(=O)O4 [Physalin B] has CC50 at 24 h of 50.7

----------
- Test system: HepG2 cells
- ASSAY SUMMARY: Cell toxicity (CC50) in the HepG2 cell line, CellTiter-Glo
- Type: cell-based, human
For each entry below, report its CC50 value.
# value in µM; strip the unit string

Per the record, CC(C)c1ccc2c(c1)CC[C@H]1[C@](C)(CN)CCC[C@]21C [Dehydroabietylamine] has CC50 of 32.9

Per the record, Cc1cc(C(C)(C)CC(C)(C)C)ccc1OCCOCC[N+](C)(C)Cc1ccccc1 [Methylbenzethonium Chloride] has CC50 of 53.2

Per the record, c1ccc(-c2ccc(-c3ccc(C4=NCCN4)cc3)o2)cc1 has CC50 of 42.9

Per the record, C=C1C(=O)[C@]23[C@H](O)[C@H]1CC[C@H]2[C@@]12CO[C@]3(O)[C@@H](O)[C@@H]1C(C)(C)CC[C@@H]2O [Rubescensin A] has CC50 of 69.1

----------
- ASSAY SUMMARY: Cell toxicity (CC50) in the HepG2 cell line, CellTiter-Glo
- Assay type: cell-based, human
- ASSAY CONTEXT: human
Counter-ions that a name gives are not always drawn.
REPORTED METRIC: CC50 at 24 h (µM)
# value in µM; strip the unit string

Per the record, CCN(CC)C(=S)SSC(=S)N(CC)CC [Disulfiram] has CC50 at 24 h of 53

Per the record, CNCCCC12CCC(c3ccccc31)c1ccccc12 [Maprotiline Hydrochloride] has CC50 at 24 h of 57.9

Per the record, COc1ccc2cc1Oc1ccc(cc1)C[C@H]1c3cc(c(OC)cc3CCN1C)Oc1c(OC)c(OC)cc3c1[C@H](C2)N(C)CC3 [Tetrandrine] has CC50 at 24 h of 31.4

Per the record, CC[C@@H](C(=O)O)[C@@H]1O[C@@H]([C@@H](C)[C@H](O)[C@H](C)C(=O)[C@H](CC)[C@H]2O[C@]3(C=C[C@@H](O)[C@]4(CC[C@@](C)([C@H]5CC[C@](O)(CC)[C@H](C)O5)O4)O3)[C@H](C)C[C@@H]2C)[C@@H](C)C[C@@H]1C [Narasin] has CC50 at 24 h of 73

Per the record, COc1cc(NCCC2CCCCN2)c2ncccc2c1 (stereo not shown) has CC50 at 24 h of 108

Per the record, COc1cc2ccccc2c2cc([N+](=O)[O-])oc12 [Naphtho(2,1-b)furan, 4-methoxy-2-nitro-] has CC50 at 24 h of 64.3

Per the record, CN(C)CCCN1c2ccccc2Sc2ccc(Cl)cc21 [Chlorpromazine] has CC50 at 24 h of 96.1

Per the record, CC(NCCN(C)C)C1CC[C@H]2[C@@H]3CCc4cc(O)ccc4[C@H]3CC[C@]12C (stereo partly shown) has CC50 at 24 h of 51.6

Per the record, CCCCCCCCCCC[C@@H](C[C@@H]1OC(=O)[C@H]1CCCCCC)OC(=O)[C@H](CC(C)C)NC=O [Orlistat] has CC50 at 24 h of 161

Per the record, CN[C@H]1CC[C@@H](c2ccc(Cl)c(Cl)c2)c2ccccc21 [Sertraline Hydrochloride] has CC50 at 24 h of 82.5

----------
- ASSAY SUMMARY: Cell toxicity (CC50) in the HepG2 cell line, CellTiter-Glo
- Assay type: cell-based, human
- ASSAY CONTEXT: human
Structures can show the parent of a compound that is named as a salt.
REPORTED METRIC: CC50 at 24 h (µM)
# value in µM; strip the unit string

Per the record, COc1ccc2cc1Oc1ccc(cc1)C[C@H]1c3c(cc4c(c3Oc3cc5c(cc3OC)CCN(C)[C@@H]5C2)OCO4)CCN1C [Cepharanthine] has CC50 at 24 h of 86.3

Per the record, N=C1C=CC(=C(c2ccc(N)cc2)c2ccc(N)cc2)C=C1 [Pararosaniline Pamoate] has CC50 at 24 h of 37.1

Per the record, C[C@@H]1[C@H](O)[C@@H](C)/C=C/C=C/C=C/C=C/C=C/C=C/C=C/[C@H](O[C@@H]2O[C@H](C)[C@@H](O)[C@H](N)[C@@H]2O)C[C@@H]2O[C@](O)(C[C@@H](O)C[C@@H](O)[C@H](O)CC[C@@H](O)C[C@@H](O)CC(=O)O[C@H]1C)C[C@H](O)[C@H]2C(=O)O [Amphotericin B] has CC50 at 24 h of 104

Per the record, CO[C@@H]1C[C@@H](C[C@H]2CC[C@H](C)[C@H]([C@@H](C)C(=O)O)O2)O[C@]2(O[C@](C)([C@H]3CC[C@@](C)([C@@H]4O[C@@H]([C@H]5O[C@@](O)(CO)[C@H](C)C[C@@H]5C)C[C@@H]4C)O3)C[C@H]2C)[C@@H]1C [Nigericin, monosodium salt] has CC50 at 24 h of 34.3

Per the record, Cc1cc(N2CCCCC2)nc2ccc(Cc3ccc4nc(N5CCCCC5)cc(C)c4c3)cc12 has CC50 at 24 h of 109

----------
For each entry below, report its EC50 value.
- Test system: luciferase-transfected Leishmania donovani
- ASSAY SUMMARY: Anti-leishmanial efficacy (EC50) in the ex vivo splenic explant model
- Format: cell-based
- ASSAY CONTEXT: Leishmania donovani; ex vivo splenic explant, 48 h, luminometry; at least two experiments; compound from screened library; read-out: Ex vivo model EC50 Mean

Per the record, N=C1C=CC(=C(c2ccc(N)cc2)c2ccc(N)cc2)C=C1 [Pararosaniline Pamoate] has EC50 of 2.7 µM

Per the record, Oc1c(I)cc(Cl)c2cccnc12 has EC50 of 11.3 µM

Per the record, CC(C)[C@@H]1NC(=O)[C@H](C)OC(=O)[C@@H](C(C)C)NC(=O)[C@@H](C(C)C)OC(=O)[C@H](C(C)C)NC(=O)[C@H](C)OC(=O)[C@@H](C(C)C)NC(=O)[C@@H](C(C)C)OC(=O)[C@H](C(C)C)NC(=O)[C@H](C)OC(=O)[C@@H](C(C)C)NC(=O)[C@@H](C(C)C)OC1=O has EC50 of 0.02 µM

Per the record, CCCCCC[C@H]1C(=O)O[C@H](C)[C@H](NC(=O)c2cccc(NC=O)c2O)C(=O)O[C@@H](C)[C@@H]1OC(=O)CC(C)C [ANTIMYCIN A] has EC50 of 11.6 µM

Per the record, CC[n+]1c(-c2ccccc2)c2cc(N)ccc2c2ccc(N)cc21 [Homidium Bromide] has EC50 of 11.9 µM

Per the record, COc1cc(NCCC2CCCCN2)c2ncccc2c1 (stereo not shown) has EC50 of 5.1 µM

Per the record, CCCCCCCCCCCCCCCC[N+](C)(C)C [Cetrimonium Bromide] has EC50 of 6.1 µM

----------
- ASSAY SUMMARY: Cell toxicity (CC50) in the HepG2 cell line, CellTiter-Glo
- Format: cell-based, human
- ASSAY CONTEXT: human; HepG2 cell line, 24 h, ATP luminescence; compound from screened library; read-out: HepG2 CC50 Mean
Counter-ions that a name gives are not always drawn.
REPORTED METRIC: CC50 (µM)
# value in µM; strip the unit string

Per the record, O=C1C=C2C=C[C@@H]3C[C@@]2(O1)[C@H]1CCCCN31 [Securinine] has CC50 of 47.7

Per the record, Cc1nccc2c1[nH]c1cc(O)ccc12 [Harmol Hydrochloride] has CC50 of 60.2

Per the record, CN(C)CCCNc1c2c(nc3ccc(Cl)cc13)CCCC2 has CC50 of 58.8

Per the record, CC[C@@]1(O)C[C@H](O[C@H]2C[C@H](N(C)C)[C@H](O)[C@H](C)O2)c2c(cc3c(c2O)C(=O)c2c(O)cccc2C3=O)[C@H]1C(=O)OC [Aklavine Hydrochloride] has CC50 of 14

Per the record, CN(C)CCCN1c2ccccc2Sc2ccc3ccccc3c21 has CC50 of 66.6

Per the record, CSc1ccc2c(c1)c(CCN)c(C)n2Cc1ccccc1Cl has CC50 of 71.8

Per the record, CCCCCCCCCCCCCCCC[N+](C)(C)C [Cetrimonium Bromide] has CC50 of 42.9

// provenance: paper PMC3039689
